tested on: K98450-129-R-PDC complex spheroid growth, percent test/control; test: Anticancer human tumor K98450-129-R-PDC patient-derived colon adenocarcinoma cell line growth inhibition [RAS]; settings: second compound 1 µM; first compound 0.0316 µM; active compounds read low
Output 1 for records whose viability, T/C is lower than 80%, 0 for records at or above 80%.

Determine whether this molecule shows viability, T/C lower than 80% (ties excluded): CC(C)n1nc(-c2ccc3oc(N)nc3c2)c2c(N)ncnc21 + C#Cc1c(F)ccc2cc(O)cc(-c3ncc4c(N5CC6CCC(C5)N6)nc(OCC56CCCN5CC(F)C6)nc4c3F)c12
0

Determine whether this molecule shows viability, T/C lower than 80% (ties excluded): C[C@@H](NC(=O)c1ncnc(N)c1Cl)c1ncc(C(=O)Nc2cc(C(F)(F)F)c(Cl)cn2)s1 + C=CC(=O)N1CCN(c2nc(OCC3CCCN3C)nc3c(F)c(-c4nc(N)cc(C)c4C(F)(F)F)c(Cl)cc23)C(C)C1
1

----------
test system: K98450-129-R-PDC complex spheroid growth, percent test/control; experiment: Anticancer human tumor K98450-129-R-PDC cell line growth inhibition [RAS]; conditions: second compound 0.3 µM; first compound 0.316 µM; active means viability on the fitted dose curve at most 10% of control; inactive means the rest;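 also: luminescence used as a proxy for viable cell amount; spheroids exposed to agents for seven days before the viability readout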
Select the correct class. Options are active, inactive and nothing else.

| Compound | Category |
| --- | --- |
| CC(=O)OC12COC1CC(O)C1(C)C(=O)C(O)C3=C(C)C(OC(=O)C(O)C(NC(=O)OC(C)(C)C)c4ccccc4)CC(O)(C(OC(=O)c4ccccc4)C21)C3(C)C (stereo not given) + CCn1c(-c2cc(N3CCN(C)CC3)cnc2C(C)OC)c2c3cc(ccc31)-c1csc(n1)CC(NC(=O)C1CC1C)C(=O)N1CCCC(N1)C(=O)OCC(C)(C)C2 | inactive |
| CC1(O)CCCC1n1c(=O)c(C(F)F)cc2cnc(NC3CCN(S(C)(=O)=O)CC3)nc21 (stereo not given) + CCn1c(-c2cccnc2C(C)OC)c2c3cc(ccc31)N1CCOC(CC(NC(=O)C(C(C)C)N(C)C(=O)C3(F)CCN(C(=O)C#CC(C)(C)N(C)C)CC3)C(=O)N3CCCC(N3)C(=O)OCC(C)(C)C2)C1 | inactive |
| O=C(c1ccc(F)c(F)c1Nc1ccc(I)cc1F)N1CC(O)([C@@H]2CCCCN2)C1 + CCn1c(-c2cc(N3CCN(C)CC3)cnc2C(C)OC)c2c3cc(ccc31)-c1csc(n1)CC(NC(=O)C1CC1C)C(=O)N1CCCC(N1)C(=O)OCC(C)(C)C2 | active |
| C=CC(=O)N1CCN(c2nc(OCC3CCCN3C)nc3c(F)c(-c4nc(N)cc(C)c4C(F)(F)F)c(Cl)cc23)C(C)C1 (stereo not given) + CCn1c(-c2cccnc2C(C)OC)c2c3cc(ccc31)N1CCOC(CC(NC(=O)C(C(C)C)N(C)C(=O)C3(F)CCN(C(=O)C#CC(C)(C)N(C)C)CC3)C(=O)N3CCCC(N3)C(=O)OCC(C)(C)C2)C1 | inactive |
| CC1(O)CCCC1n1c(=O)c(C(F)F)cc2cnc(NC3CCN(S(C)(=O)=O)CC3)nc21 (stereo not given) + CCn1c(-c2cc(N3CCN(C)CC3)cnc2C(C)OC)c2c3cc(ccc31)-c1csc(n1)CC(NC(=O)C1CC1C)C(=O)N1CCCC(N1)C(=O)OCC(C)(C)C2 | inactive |

Hello, I am checking results. What call was entered for CCC(CC)c1cc(NC2CCC(N)C2)n2nccc2n1 (stereo not given) + CCn1c(-c2cccnc2C(C)OC)c2c3cc(ccc31)N1CCOC(CC(NC(=O)C(C(C)C)N(C)C(=O)C3(F)CCN(C(=O)C#CC(C)(C)N(C)C)CC3)C(=O)N3CCCC(N3)C(=O)OCC(C)(C)C2)C1 ?
inactive

Hello, I am checking results. What call was entered for NC1c2ccccc2OC12CCN(c1cnc3c(N4CCCc5ncccc54)n[nH]c3n1)CC2 (stereo not given) + CCn1c(-c2cccnc2C(C)OC)c2c3cc(ccc31)N1CCOC(CC(NC(=O)C(C(C)C)N(C)C(=O)C3(F)CCN(C(=O)C#CC(C)(C)N(C)C)CC3)C(=O)N3CCCC(N3)C(=O)OCC(C)(C)C2)C1 ?
active

Hello, I am checking results. What call was entered for C=CC(=O)Nc1cc(Nc2nccc(-c3cn(C)c4ccccc34)n2)c(OC)cc1N(C)CCN(C)C + CCn1c(-c2cc(N3CCN(C)CC3)cnc2C(C)OC)c2c3cc(ccc31)-c1csc(n1)CC(NC(=O)C1CC1C)C(=O)N1CCCC(N1)C(=O)OCC(C)(C)C2 ?
active

Hello, I am checking results. What call was entered for CC(C)NCC(C(=O)N1CCN(c2ncnc3c2C(C)CC3O)CC1)c1ccc(Cl)cc1 (stereo not given) + CCn1c(-c2cccnc2C(C)OC)c2c3cc(ccc31)N1CCOC(CC(NC(=O)C(C(C)C)N(C)C(=O)C3(F)CCN(C(=O)C#CC(C)(C)N(C)C)CC3)C(=O)N3CCCC(N3)C(=O)OCC(C)(C)C2)C1 ?
inactive

Hello, I am checking results. What call was entered for C[C@@H](NC(=O)c1ncnc(N)c1Cl)c1ncc(C(=O)Nc2cc(C(F)(F)F)c(Cl)cn2)s1 + CCn1c(-c2cccnc2C(C)OC)c2c3cc(ccc31)N1CCOC(CC(NC(=O)C(C(C)C)N(C)C(=O)C3(F)CCN(C(=O)C#CC(C)(C)N(C)C)CC3)C(=O)N3CCCC(N3)C(=O)OCC(C)(C)C2)C1 ?
inactive

Hello, I am checking results. What call was entered for CC(C)NCC(C(=O)N1CCN(c2ncnc3c2C(C)CC3O)CC1)c1ccc(Cl)cc1 (stereo not given) + CCn1c(-c2cc(N3CCN(C)CC3)cnc2C(C)OC)c2c3cc(ccc31)-c1csc(n1)CC(NC(=O)C1CC1C)C(=O)N1CCCC(N1)C(=O)OCC(C)(C)C2 ?
inactive

Hello, I am checking results. What call was entered for Cc1nc(N2CCC3(CC2)COC(C)C3N)c(CO)nc1Sc1ccnc(N)c1Cl (stereo not given) + CCn1c(-c2cccnc2C(C)OC)c2c3cc(ccc31)N1CCOC(CC(NC(=O)C(C(C)C)N(C)C(=O)C3(F)CCN(C(=O)C#CC(C)(C)N(C)C)CC3)C(=O)N3CCCC(N3)C(=O)OCC(C)(C)C2)C1 ?
inactive

Hello, I am checking results. What call was entered for C=CC(=O)Nc1cc(Nc2nccc(-c3cn(C)c4ccccc34)n2)c(OC)cc1N(C)CCN(C)C + CCn1c(-c2cccnc2C(C)OC)c2c3cc(ccc31)N1CCOC(CC(NC(=O)C(C(C)C)N(C)C(=O)C3(F)CCN(C(=O)C#CC(C)(C)N(C)C)CC3)C(=O)N3CCCC(N3)C(=O)OCC(C)(C)C2)C1 ?
inactive

Hello, I am checking results. What call was entered for O=C(c1ccc(F)c(F)c1Nc1ccc(I)cc1F)N1CC(O)([C@@H]2CCCCN2)C1 + CCn1c(-c2cccnc2C(C)OC)c2c3cc(ccc31)N1CCOC(CC(NC(=O)C(C(C)C)N(C)C(=O)C3(F)CCN(C(=O)C#CC(C)(C)N(C)C)CC3)C(=O)N3CCCC(N3)C(=O)OCC(C)(C)C2)C1 ?
active

Hello, I am checking results. What call was entered for C[C@@H](NC(=O)c1ncnc(N)c1Cl)c1ncc(C(=O)Nc2cc(C(F)(F)F)c(Cl)cn2)s1 + CCn1c(-c2cc(N3CCN(C)CC3)cnc2C(C)OC)c2c3cc(ccc31)-c1csc(n1)CC(NC(=O)C1CC1C)C(=O)N1CCCC(N1)C(=O)OCC(C)(C)C2 ?
inactive
